- target entity: T1, CD138 on the surface of U266 cells (CD138+ human lymphoblastic myeloma cell line) (human, UniProt P18827 23-310)
- T1 construct: whole, on cells; also called cell surface CD138; membrane CD138
- T1 sequence (looked up): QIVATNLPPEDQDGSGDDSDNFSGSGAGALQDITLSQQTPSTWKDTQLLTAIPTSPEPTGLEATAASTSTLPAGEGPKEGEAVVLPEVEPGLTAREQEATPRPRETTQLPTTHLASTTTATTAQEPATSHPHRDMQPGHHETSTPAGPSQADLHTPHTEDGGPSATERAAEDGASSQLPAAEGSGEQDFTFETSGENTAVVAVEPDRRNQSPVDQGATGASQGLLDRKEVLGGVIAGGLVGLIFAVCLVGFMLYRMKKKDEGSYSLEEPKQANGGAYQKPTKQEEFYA
- experiment: flow cytometry on U266 cells at pH 6.0, MFI against antibody concentration (0.01-10 ug/mL)
metric: EC50 (read off the curve)

query: What does the record list as EC50 (read off the curve) for Antibody Ab28 (antibody, V domains shown, also called Mab 28) VH: EVQLVQSGAEVKKPGASVKVSCKASGYSFSSYYMHWVRQAPGQGLEWMGTIYPGDSTTNYNQKFQGRVTMTVDTSTRTAYMELSSLRSEDTAVYYCADFVYWGQGTTVTVSS VL: DIVMTQTPLSLSVTPGQPASISCKSSKSLLYKDGKTYLNWFLQKPGQSPQLLIYVVSTRASGVPDRFSGSGSGTDFTLKISRVEAEDVGVYYCQQLVEYPYTFGQGTKLEIK ?
result: ~0.7 µg/mL

These measurements were taken from patent US20230348614A1.
